# pIC50 listing for each entry below
# measured on: Y2 receptors (Homo sapiens)
# Construct: endogenous in cells; host or cells: KAN-Ts cells (membranes)
# Sequence (P49146 1-381): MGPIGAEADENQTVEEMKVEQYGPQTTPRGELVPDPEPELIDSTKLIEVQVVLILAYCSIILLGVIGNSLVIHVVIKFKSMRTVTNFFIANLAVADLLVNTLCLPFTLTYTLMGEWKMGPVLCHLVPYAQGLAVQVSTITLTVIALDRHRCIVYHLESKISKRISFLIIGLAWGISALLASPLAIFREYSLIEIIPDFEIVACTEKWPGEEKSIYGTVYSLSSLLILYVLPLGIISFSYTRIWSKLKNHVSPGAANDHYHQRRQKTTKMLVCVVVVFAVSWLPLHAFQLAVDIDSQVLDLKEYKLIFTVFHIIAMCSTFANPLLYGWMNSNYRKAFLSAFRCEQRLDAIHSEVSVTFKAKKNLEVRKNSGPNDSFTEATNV
# measurement description: Radioligand binding assay ([125I]PYY, KAN-Ts cell membranes)
# experimental setup: Table 1, [125I]PYY 80 pM, average of results, read-out: IC50
Quick note: pIC50 means taking -log10 of the concentration in moles per liter.

Worked examples, 10 molecules total:
molecule="CCC(CC)C(=O)Nc1ccc(N2CCN(Cc3ccccc3C(=O)OC)CC2)c(F)c1 [Example 2]" measured_on="Y2 receptors (Homo sapiens)" recorded_value=5.63
molecule="CCC(CC)C(=O)Nc1ccc(N2CCC(C(C(=O)N(CC)CC)c3ccccc3)CC2)c(F)c1 (stereo not shown) [Example 11]" measured_on="Y2 receptors (Homo sapiens)" recorded_value=7.92
molecule="COC(=O)C(c1ccccc1)N1CCN(c2ccc(NC(=O)C3CCCC3)cc2)CC1 (stereo not shown) [Example 59]" measured_on="Y2 receptors (Homo sapiens)" recorded_value=4.88
molecule="CCC(CC)C(=O)Nc1ccc(N2CCN(C(C(=O)OC)c3ccc(C#N)cc3)CC2)c(F)c1 (stereo not shown) [Example 36]" measured_on="Y2 receptors (Homo sapiens)" recorded_value=6.68
molecule="CCNC(=O)C(c1ccccc1)C1CCN(c2ccc(NC(=O)[C@@H]3CCOC3)cc2C#N)CC1 (stereo partly shown) [Example 148]" measured_on="Y2 receptors (Homo sapiens)" recorded_value=6.92
molecule="CCN(CC)C(=O)C(c1ccccc1)C1CCN(c2ccc(NC(=O)Nc3c(C)noc3C)cc2F)CC1 (stereo not shown) [Example 8]" measured_on="Y2 receptors (Homo sapiens)" recorded_value=8.00
molecule="COC(=O)C(c1ccccc1)N1CCN(c2ccc(NC(=O)c3ccccc3I)cc2)CC1 (stereo not shown) [Example 46]" measured_on="Y2 receptors (Homo sapiens)" recorded_value=5.22
molecule="CCC(CC)C(=O)N(C)c1ccc(N2CCN(C(C(=O)N(CC)CC)c3ccccc3)CC2)c(F)c1 (stereo not shown) [Example 112]" measured_on="Y2 receptors (Homo sapiens)" recorded_value=6.35
molecule="COC(=O)C(c1ccccc1)N1CCN(c2ccc(NC(=O)c3ccccc3OC)cc2)CC1 (stereo not shown) [Example 56]" measured_on="Y2 receptors (Homo sapiens)" recorded_value=5.40
molecule="CCC(CC)C(=O)Nc1ccc(N2CCN(C(C(=O)N(CC)CC)c3cc(Br)ccc3F)CC2)c(F)c1 (stereo not shown) [Example 124]" measured_on="Y2 receptors (Homo sapiens)" recorded_value=7.82

query: Lab note: need pIC50 with Y2 receptors (Homo sapiens) for entry CCC(CC)C(=O)Nc1ccc(N2CCN(C(C(=O)N(CC)CC)c3cccc(OC)c3)CC2)c(F)c1 (stereo not shown) [Example 129] , please look it up.
result: 7.40

###

# measured on: Y2 receptors (Homo sapiens, UniProt P49146)
# Construct: endogenous in cells; host or cells: KAN-Ts cells (membranes)
# measurement description: Radioligand binding assay ([125I]PYY, KAN-Ts cell membranes)
# experimental setup: Table 2, [125I]PYY 80 pM, average of results, read-out: IC50
# pIC50 listing for each entry below
Quick note: pIC50 means taking -log10 of the concentration in moles per liter.

Worked examples, 5 molecules total:
molecule="CCN(CC)C(=O)Cc1ccc(N2CCN(C(C(=O)N(CC)CC)c3ccccc3)CC2)c(F)c1 (stereo not shown)" measured_property=pIC50 recorded_value=5.82
molecule="CCC(CC)C(=O)Nc1ccc(N2CCN(C(C(=O)N3CCC(F)(F)CC3)c3cccc(F)c3)CC2)c(F)c1 (stereo not shown)" measured_property=pIC50 recorded_value=6.97
molecule="CCC(CC)C(=O)Nc1ccc(N2CCN(C(C(=O)N(CC)CC)c3ccc(OC)cc3)CC2)c(F)c1 (stereo not shown)" measured_property=pIC50 recorded_value=7.74
molecule="CCN(CC)C(=O)C(c1ccccc1)N1CCN(c2ccc(C(=O)C3CCCC3)cc2F)CC1 (stereo not shown)" measured_property=pIC50 recorded_value=5.48
molecule="CCC(CC)C(=O)Nc1ccc(N2CCC(C(C(=O)N(CC)CC)c3ccccc3)CC2)c(C#N)c1 (stereo not shown)" measured_property=pIC50 recorded_value=8.00

query: Looking for the measured pIC50 of CCC(CC)C(=O)Nc1ccc(N2CCC(C(C(=O)N3CCC3)c3ccccc3)CC2)c(F)c1 (stereo not shown) , can you help?
result: 7.00

query: Input CCC(CC)C(=O)Nc1ccc(N2CCN(Cc3cc(F)cc(F)c3)C(C(=O)OC)C2)c(F)c1 (stereo not shown)
result: 5.15

query: Input CCCS(=O)(=O)Nc1ccc(N2CCN(C(C(=O)N(CC)CC)c3ccccc3)CC2)c(F)c1 (stereo not shown)
result: 5.96

query: Input CCC(CC)C(=O)Nc1ccc(N2CCC(C(C(=O)Nc3nc(C)cs3)c3ccccc3)CC2)c(F)c1 (stereo not shown)
result: 7.52

query: Input CCC(CC)NC(=O)Cc1ccc(N2CCN(C(C(=O)N(CC)CC)c3ccccc3)CC2)c(F)c1 (stereo not shown)
result: 6.25

query: Input CCC(CC)C(=O)Nc1ccc(C2=CCN(C(C(=O)N(CC)CC)c3ccccc3)CC2)c(F)c1 (stereo not shown)
result: 6.85

query: Input CCN(CC)C(=O)C(c1ccccc1)N1CC=C(c2ccc(C(=O)OC)cc2F)CC1 (stereo not shown)
result: 5.03

query: Input CCN(CC)C(=O)C(c1ccccc1)N1CCN(c2ccc(N3CCCC3=O)cc2F)CC1 (stereo not shown)
result: 5.80

query: Input CCC(CC)C(=O)Nc1ccc(N2CCN(C(C(=O)N(CC)CC)c3ccccc3)CC2C)c(F)c1 (stereo not shown)
result: 6.84

query: Input CCN(CC)C(=O)C(c1ccccc1)N1CCN(c2ccc(NC(=O)C3CCCC3)cc2F)CC1 (stereo not shown)
result: 7.10

###

# IC50 listing for each entry below
# measured on: Y2 receptors (Homo sapiens, UniProt P49146)
# Construct: endogenous in cells; host or cells: KAN-Ts cells (membranes)
# measurement description: Radioligand binding assay ([125I]PYY, KAN-Ts cell membranes)
# experimental setup: Table 1, [125I]PYY 80 pM, average of results, read-out: IC50
# unit: µM | format: bare number

Worked examples, 6 compounds total:
compound="COC(=O)C(c1ccccc1)N1CCN(c2ccc(NC(=O)c3ccoc3)cc2)CC1 (centres unmarked)" recorded_value=20
compound="CCOC(=O)C(c1ccccc1)N1CCN(c2ccc(NC(=O)C(CC)CC)cc2F)CC1 (centres unmarked)" recorded_value=0.02
compound="CC(=O)N(c1ccccc1)c1ccc(N2CCN(C(C(=O)Nc3ccc4c(c3)CCC4)c3ccccc3)CC2)cc1 (centres unmarked)" recorded_value=3.4
compound="CCCCC(=O)Nc1ccc(N2CCN(C(C(=O)OC)c3ccccc3)CC2)cc1 (centres unmarked)" recorded_value=4.8
compound="COC(=O)C(c1ccccc1)N1CCN(c2ccc(NC(=O)c3ccccc3Br)cc2)CC1 (centres unmarked)" recorded_value=2.4
compound="CCN(CC)C(=O)C(c1ccccc1)C1CCN(c2ccc(NC(=O)c3c(C)noc3C)cc2F)CC1 (centres unmarked)" recorded_value=0.026

query: Lab note: need IC50 with Y2 receptors (Homo sapiens, UniProt P49146) for entry COC(=O)C(c1ccccc1)N1CCN(c2ccc(C(=O)Nc3ccccc3)cc2)CC1 (centres unmarked) , please look it up.
result: 10

query: Input CCc1cccc(C(=O)Nc2ccc(N3CCN(C(C(=O)OC)c4ccccc4)CC3)cc2)c1 (centres unmarked)
result: 25

###

# measured on: Y2 receptors (Homo sapiens, UniProt P49146)
# Construct: endogenous in cells; host or cells: KAN-Ts cells (membranes)
# measurement description: Radioligand binding assay ([125I]PYY, KAN-Ts cell membranes)
# experimental setup: IC50 (nM), Table 1, [125I]PYY 80 pM, average of results
measured property: IC50 (nM)
# unit: nM | format: bare number

Worked examples, 2 compounds total:
compound="CCC(CC)C(=O)N(c1ccccc1)C1CCN(c2ccc(NC(=O)Nc3c(C)noc3C)cc2F)CC1 [Example 32]" measured_on="Y2 receptors (Homo sapiens, UniProt P49146)" recorded_value=180
compound="CCC(CC)C(=O)Nc1ccc(N2CCN(C(C(=O)OC)c3cccc(F)c3)CC2)c(F)c1 (stereo not drawn) [Example 34]" measured_on="Y2 receptors (Homo sapiens, UniProt P49146)" recorded_value=40

// next entry
query: Lab note: need IC50 with Y2 receptors (Homo sapiens, UniProt P49146) for entry CCC(CC)C(=O)Nc1ccc(N2CCC(N(C(=O)C(CC)CC)c3ccccc3)CC2)c(F)c1 [Example 33] , please look it up.
result: 180
